Entry source: the supplement of paper PMC10567573

B1: MLH1 (parent)
chain: YNIATRRKALKNPSEEYGKILEVV

variants of: B1; experiment: protein stability index of a GFP-peptide fusion (GPS, HEK-293T) (PSI 1-6); higher = more stable; settings: c terminus: a fixed tail appended;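 further: lentivirally expressed fusions sorted by FACS into six bins by GFP to DsRed ratio, PSI derived from sequencing read proportions per bin multiplied by bin number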
observation.type: protein stability index

> print(dat)
    mutant         observation.type  reported.result
 1     T5S  protein stability index             3.03
 2     K8D  protein stability index             3.09
 3    K19A  protein stability index              2.5
 4     K8I  protein stability index                2
 5     A9W  protein stability index             2.75
 6    E15P  protein stability index             2.21
 7    Y17Q  protein stability index             3.97
 8     Y1N  protein stability index             3.35
 9    Y17A  protein stability index             3.52
10    S14A  protein stability index             2.98
11     A4W  protein stability index             1.83
12    V23H  protein stability index             3.69
13    V23G  protein stability index             3.62
14    V23K  protein stability index             3.36
15    P13R  protein stability index             2.78
16    E16D  protein stability index             2.75
17     Y1W  protein stability index             2.86
18    S14W  protein stability index             1.43
19    N12E  protein stability index             3.35
20     N2F  protein stability index             1.71
21    G18F  protein stability index             2.16
22     A4N  protein stability index             3.27
23    S14T  protein stability index             2.85
